Tested on: hESC-hepatocyte endoderm cells
ASSAY_DETAILS: LDH cytotoxicity assay in hESC-derived hepatocyte endoderm
Format: cell-based, human
CONDITION_SUMMARY: Table 1
MEASUREMENT_NAME: LDH assay positive, hepatocyte endoderm cells

- C[C@@H]1O[C@@H](O[C@H]2C[C@@H](O)[C@]3(CO)[C@H]4[C@H](O)C[C@]5(C)[C@@H](C6=CC(=O)OC6)CC[C@]5(O)[C@@H]4CC[C@]3(O)C2)[C@H](O)[C@H](O)[C@H]1O: −/+ (10% positive cells)
- C[C@]12CC[C@H](O)C[C@H]1CC[C@@H]1[C@@H]2CC[C@]2(C)[C@@H](c3ccc(=O)oc3)CC[C@]12O: −/+ (10% positive cells)
- C[C@]12CC[C@H](O)C[C@H]1CC[C@@H]1[C@@H]2CC[C@]2(C)[C@@H](C3=CC(=O)OC3)CC[C@]12O: −/+ (10% positive cells)
- CC(=O)O[C@H]1C[C@H](O[C@H]2[C@@H](O)C[C@H](O[C@H]3[C@@H](O)C[C@H](O[C@H]4CC[C@@]5(C)[C@H](CC[C@@H]6[C@@H]5C[C@@H](O)[C@]5(C)[C@@H](C7=CC(=O)OC7)CC[C@]65O)C4)O[C@@H]3C)O[C@@H]2C)O[C@H](C)[C@H]1O[C@@H]1O[C@H](CO)[C@@H](O)[C@H](O)[C@H]1O [Lanatoside C, lanatoside C]: −/+ (10% positive cells)
- C[C@@H]1O[C@@H](O[C@@H]2C=C3CC[C@@H]4[C@H](CC[C@]5(C)[C@@H](c6ccc(=O)oc6)CC[C@]45O)[C@@]3(C)CC2)[C@H](O)[C@H](O)[C@H]1O: −/+ (10% positive cells)

---

System: hESCs (H9)
CONDITION_SUMMARY: 2.5 μM, 24 hours, vs DMSO
MEASUREMENT_NAME: cytotoxic effect (LDH release) in hESCs

- C[C@]12CC[C@H](O)C[C@H]1CC[C@@H]1[C@@H]2CC[C@]2(C)[C@@H](c3ccc(=O)oc3)CC[C@]12O: induced cytotoxicity
- C[C@@H]1O[C@@H](O[C@@H]2C=C3CC[C@@H]4[C@H](CC[C@]5(C)[C@@H](c6ccc(=O)oc6)CC[C@]45O)[C@@]3(C)CC2)[C@H](O)[C@H](O)[C@H]1O: induced cytotoxicity
